Data provenance: patent US8871753B2

# ASSAYED TARGET: Recombinant Human Anaplastic Lymphoma Kinase (Homo sapiens)
# Construct: purchased Invitrogen, Carlsbad, Calif
# Sequence (Q9UM73 19-1620): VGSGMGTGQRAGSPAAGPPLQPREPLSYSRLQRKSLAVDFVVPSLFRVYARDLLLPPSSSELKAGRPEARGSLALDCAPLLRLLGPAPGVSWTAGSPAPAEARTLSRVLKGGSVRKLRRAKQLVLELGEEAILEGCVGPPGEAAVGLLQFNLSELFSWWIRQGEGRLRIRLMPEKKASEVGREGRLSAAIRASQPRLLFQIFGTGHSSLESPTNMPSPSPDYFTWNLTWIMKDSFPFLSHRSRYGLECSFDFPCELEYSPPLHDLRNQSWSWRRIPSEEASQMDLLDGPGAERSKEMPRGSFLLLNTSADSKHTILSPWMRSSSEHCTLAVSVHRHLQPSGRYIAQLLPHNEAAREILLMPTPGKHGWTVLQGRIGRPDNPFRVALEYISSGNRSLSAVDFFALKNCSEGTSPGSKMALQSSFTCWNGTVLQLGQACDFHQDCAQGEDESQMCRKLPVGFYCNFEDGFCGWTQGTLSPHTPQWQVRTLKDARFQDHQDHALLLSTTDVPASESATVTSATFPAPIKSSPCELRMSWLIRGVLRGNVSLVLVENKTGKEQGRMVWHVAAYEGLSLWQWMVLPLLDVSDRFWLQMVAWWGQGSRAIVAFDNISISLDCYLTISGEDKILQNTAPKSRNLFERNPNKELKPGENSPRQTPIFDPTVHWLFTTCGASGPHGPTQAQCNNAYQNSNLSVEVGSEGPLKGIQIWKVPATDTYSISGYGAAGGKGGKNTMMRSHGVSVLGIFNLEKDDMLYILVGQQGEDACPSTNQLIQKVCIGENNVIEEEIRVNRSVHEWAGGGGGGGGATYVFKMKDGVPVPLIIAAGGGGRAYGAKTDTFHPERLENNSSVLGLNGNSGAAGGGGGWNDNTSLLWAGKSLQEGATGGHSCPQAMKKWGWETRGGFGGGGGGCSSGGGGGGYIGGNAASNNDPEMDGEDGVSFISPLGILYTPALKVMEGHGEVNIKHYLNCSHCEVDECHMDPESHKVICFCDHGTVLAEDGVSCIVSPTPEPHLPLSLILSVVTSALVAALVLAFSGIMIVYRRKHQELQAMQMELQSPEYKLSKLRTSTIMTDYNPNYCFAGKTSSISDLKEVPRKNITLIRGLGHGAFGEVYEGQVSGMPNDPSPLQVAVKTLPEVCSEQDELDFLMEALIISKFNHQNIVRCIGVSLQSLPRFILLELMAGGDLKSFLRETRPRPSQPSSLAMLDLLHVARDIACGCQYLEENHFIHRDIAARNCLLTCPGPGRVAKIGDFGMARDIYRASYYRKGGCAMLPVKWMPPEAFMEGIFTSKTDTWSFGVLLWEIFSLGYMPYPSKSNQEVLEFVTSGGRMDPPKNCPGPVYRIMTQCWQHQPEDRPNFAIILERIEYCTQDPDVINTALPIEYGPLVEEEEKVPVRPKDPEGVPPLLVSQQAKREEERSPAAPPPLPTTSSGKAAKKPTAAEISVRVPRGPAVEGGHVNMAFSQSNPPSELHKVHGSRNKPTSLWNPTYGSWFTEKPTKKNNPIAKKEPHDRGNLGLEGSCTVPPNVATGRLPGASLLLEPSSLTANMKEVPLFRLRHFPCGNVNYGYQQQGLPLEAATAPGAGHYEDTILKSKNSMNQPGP
# TEST METHOD NOTES: ALK HTRF kinase assay
# Format: biochemical
# CONDITIONS: compound at 500 nM or 1 mM; 90 μM ATP
Structures can show the parent of a compound that is named as a salt.
MEASUREMENT NAME: ALK % of inhibition at a concentration of 500 nM or 1 mM (%)

Below are worked cases with known answers.
[
  {
    "MOLECULE": "Oc1cc2cc(c1)Nc1nc(ncc1Cl)Nc1cccc(c1)CC2 [Example A22, trifluoroacetate]",
    "ASSAYED TARGET": "Recombinant Human Anaplastic Lymphoma Kinase (Homo sapiens)",
    "RECORDED NUMBER": 54
  },
  {
    "MOLECULE": "O=C(CC1CCN(c2nc3cccnc3o2)CC1)Nc1ccc2cc1CCc1cncc(c1)Nc1ncc(Cl)c(n1)N2 [Example A158, tris(trifluoroacetate)]",
    "ASSAYED TARGET": "Recombinant Human Anaplastic Lymphoma Kinase (Homo sapiens)",
    "RECORDED NUMBER": 18
  },
  {
    "MOLECULE": "CC(C)(C)OC(=O)N1CCC(C(=O)Nc2ccc3cc2CCc2cccc(c2)Nc2ncc(Cl)c(n2)N3)CC1 [Example A27, trifluoroacetate]",
    "ASSAYED TARGET": "Recombinant Human Anaplastic Lymphoma Kinase (Homo sapiens)",
    "RECORDED NUMBER": 21
  },
  {
    "MOLECULE": "CC(C)N1CCC(CC(=O)Nc2ccc3cc2CCc2cncc(c2)Nc2ncc(Cl)c(n2)N3)CC1 [Example A140, tris(trifluoroacetate)]",
    "ASSAYED TARGET": "Recombinant Human Anaplastic Lymphoma Kinase (Homo sapiens)",
    "RECORDED NUMBER": 18
  }
]

a = CC(=O)N1CC[C@@H](C(=O)Nc2ccc3cc2CCc2cccc(c2)Nc2ncc(Cl)c(n2)N3)C1 [Example A51, trifluoroacetate]
b = O=C(CC1CCN(C(=O)NCc2ccccc2)CC1)Nc1ccc2cc1CCc1cncc(c1)Nc1ncc(Cl)c(n1)N2 [Example A155, bis(trifluoroacetate)]
Input: # min-compare on ALK % of inhibition at a concentration of 500 nM or 1 mM between a and b State your choice using its label.
Output: a
(a: 30%, b: 47%)
